target: furin, P09958; test: furin cleavage Z-score vs untreated control; higher = more cleavage, active = 3.5 or more, inactive = 1 or less, 8 variable residues between constant flanks; details: 30 min;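 also: purified furin at 1:10 enzyme:substrate in 50 mM HEPES pH 7.5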
Sequence (P09958 whole entry): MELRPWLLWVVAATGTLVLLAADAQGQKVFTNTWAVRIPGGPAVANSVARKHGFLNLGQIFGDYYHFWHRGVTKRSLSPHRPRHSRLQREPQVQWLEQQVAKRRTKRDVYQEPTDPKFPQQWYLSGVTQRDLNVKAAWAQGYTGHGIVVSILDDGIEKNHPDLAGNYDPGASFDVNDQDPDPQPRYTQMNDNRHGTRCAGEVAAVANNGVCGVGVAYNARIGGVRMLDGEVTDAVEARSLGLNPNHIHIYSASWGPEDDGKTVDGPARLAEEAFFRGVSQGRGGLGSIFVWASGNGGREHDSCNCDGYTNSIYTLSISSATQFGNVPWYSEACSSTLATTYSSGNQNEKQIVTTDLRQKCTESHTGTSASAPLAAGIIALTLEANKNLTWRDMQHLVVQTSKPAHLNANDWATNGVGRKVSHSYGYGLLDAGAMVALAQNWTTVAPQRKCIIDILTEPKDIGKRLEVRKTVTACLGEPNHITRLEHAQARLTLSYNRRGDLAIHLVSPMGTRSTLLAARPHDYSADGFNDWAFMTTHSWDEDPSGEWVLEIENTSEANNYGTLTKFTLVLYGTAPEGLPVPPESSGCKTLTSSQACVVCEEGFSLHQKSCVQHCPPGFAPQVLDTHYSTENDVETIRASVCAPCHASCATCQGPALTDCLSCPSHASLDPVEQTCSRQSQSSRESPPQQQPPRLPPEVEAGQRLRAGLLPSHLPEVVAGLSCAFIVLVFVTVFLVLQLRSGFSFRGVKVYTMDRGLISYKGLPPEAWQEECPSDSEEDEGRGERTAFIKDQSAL
The list shows a part of the results. How many sequences the whole screen found active is unknown.
Below is a list of entries, each paired with its recorded furin cleavage Z-score value.

Sample records with furin cleavage Z-score:
CADLLVGSATAGNASASA [HC292] :: -2.04 (inactive)
CAPTGSGKSTAGNASASA [HC776] :: 0.917 (inactive)
CARHRKHSPQAGNASASA [FS-2680] :: -0.323 (inactive)

## Task Given CAYMSKAHGIAGNASASA [HC794] , state its recorded furin cleavage Z-score.
## Result 0.089 (inactive)

## Task Would you mind doing CAELSPLLLTAGNASASA [HC491] as well?
## Result 0.347 (inactive)

## Task Would you mind doing CAQVGDFHYVAGNASASA [HC1208] as well?
## Result -0.0115 (inactive)

## Task Would you mind doing CASSPRCKRTAGNASASA [FS-724] as well?
## Result 4.2 (active)

## Task Would you mind doing CAPSERTRRTAGNASASA [FS-1553] as well?
## Result 7.83 (active)

## Task Would you mind doing CAPTRRTKRTAGNASASA [FS-76] as well?
## Result 7.13 (active)

## Task Would you mind doing CASSFRFPRTAGNASASA [FS-196] as well?
## Result 1.37

## Task Would you mind doing CAEEEVPCHRAGNASASA [HC2452] as well?
## Result -0.159 (inactive)

## Task Would you mind doing CAEKPCHRPSAGNASASA [HC2334] as well?
## Result 0.19 (inactive)

## Task Would you mind doing CAVVCCSMGYAGNASASA [HC2076] as well?
## Result -0.0504 (inactive)

## Task Would you mind doing CAMEEPSQHLAGNASASA [HC20] as well?
## Result 1.68

## Task Would you mind doing CANTLHCPTDAGNASASA [HC449] as well?
## Result -0.583 (inactive)

Data origin, for the record: the supplement of paper PMC3545927
